PROTOCOL_TEXT: basal MM1S mitochondrial membrane potential changes, profiling panel, cell-based, JC-1 fluorescence, 24 h, 100 nL compound (AID 1170); note: test concentration not given here
EXPERIMENTAL_CONTEXT: higher = more signal
ENDPOINT_NAME: z-score

COMPOUND	ASSAY_VALUE
CC(=O)OC[C@H]1O[C@@H](ON=C2[C@H]3CCn4c(=O)n(-c5ccccc5)c(=O)n4[C@H]3[C@H](O)[C@@H]3O[C@H]23)[C@H](OC(C)=O)[C@@H](OC(C)=O)[C@@H]1OC(C)=O	-0.64
C[C@@H](c1ccccc1)N1C(=O)[C@H]2[C@H]3[C@H](O)[C@H](O)CC(=NOCc4ccccc4)[C@@H]3CC[C@H]2C1=O	0.645
CC(CCC(=O)OC[C@H]1O[C@H](C#Cc2ccccc2)C=C[C@@H]1Oc1ccc(C)cc1)=NOC(C)CN1CCCc2nc(C)c(C)cc21 (stereo partly specified)	-0.74
CCN1C(C)=C(C(=O)OC)[C@@H](c2ccccc2)N2C(=O)[C@](O)(C(=O)OC)CC(C(C)=O)=C12	0.146
COC(=O)[C@H](C)NC(=O)CCC1CC(OC(=O)NCc2ccc3c(c2)OCO3)CC2(CCCC(COC(=O)NCc3ccccc3)O2)O1 (stereo partly specified)	-0.882
C#CCCCON=C1C[C@@H](O)[C@@H](O)[C@@H]2[C@@H]3C(=O)N([C@@H](C)c4ccccc4)C(=O)[C@@H]3CC[C@@H]12	-0.968

###

ASSAY_SYSTEM: NADPH oxidase 2 (Homo sapiens) (UniProt P04839)
Sequence (P04839 whole entry, looked up): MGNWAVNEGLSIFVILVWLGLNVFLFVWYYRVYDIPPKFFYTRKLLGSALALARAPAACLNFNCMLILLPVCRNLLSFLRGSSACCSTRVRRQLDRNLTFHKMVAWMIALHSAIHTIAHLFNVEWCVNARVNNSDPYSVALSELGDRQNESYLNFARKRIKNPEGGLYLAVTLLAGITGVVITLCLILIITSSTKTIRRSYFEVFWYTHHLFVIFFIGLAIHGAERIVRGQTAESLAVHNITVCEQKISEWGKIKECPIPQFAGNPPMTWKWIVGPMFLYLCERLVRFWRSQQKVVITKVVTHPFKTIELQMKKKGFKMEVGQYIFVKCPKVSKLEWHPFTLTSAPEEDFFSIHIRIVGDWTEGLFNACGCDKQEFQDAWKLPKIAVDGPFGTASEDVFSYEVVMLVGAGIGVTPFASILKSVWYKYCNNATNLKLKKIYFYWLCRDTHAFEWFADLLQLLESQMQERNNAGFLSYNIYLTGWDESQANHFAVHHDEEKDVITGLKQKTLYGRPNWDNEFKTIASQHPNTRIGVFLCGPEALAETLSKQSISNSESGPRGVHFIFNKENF
PROTOCOL_TEXT: NOX2-dependent H2O2 signal modulators, primary screen, NOX inhibitor project, cell-based, HEK293-NOX2, PMA-stimulated, Amplex Red fluorescence (AID 1159); note: test concentration not given here
EXPERIMENTAL_CONTEXT: 45 min, higher = more signal, called active from +8 up or from −8 down
Overview of recorded z-score for various molecules
ENDPOINT_NAME: z-score

MOLECULE	ASSAY_VALUE
CCOC(=O)[C@H](Cc1ccccc1)NC(=O)CCC1CC(OC(=O)NCCc2ccc(F)cc2)CC2(CCCC(COC(=O)NCc3cccc(C(F)(F)F)c3)O2)O1 (stereo partly specified)	0.575
C#CCCCON=C1C[C@@H](O)[C@@H](O)[C@@H]2[C@@H]3C(=O)N(C[C@@H]4CCCO4)C(=O)[C@@H]3CC[C@@H]12	-3.03
CCCC[C@H]1CN2[C@@H](CC[C@@H](C)[C@@H]2c2ccc(Br)cc2)C(=O)O1	1.43
CC(C)CON=C1C[C@@H](O)[C@@H](O)[C@@H]2[C@@H]3C(=O)N([C@@H](C)c4ccccc4)C(=O)[C@@H]3CC[C@@H]12	-1.96
CCN1C(=O)[C@H]2[C@H]3[C@H](O)[C@H](O)CC(=NOCC[C@@H]4C=C[C@H](OC(C)=O)[C@@H](COC(C)=O)O4)[C@@H]3CC[C@H]2C1=O	0.0899
COC(=O)[C@@H]1CC[C@H](C)[C@@H](c2ccc(C)cc2)N1C(=O)c1ccc(C=NOC[C@@H](O)[C@H]2O[C@@H]3OC(C)(C)O[C@@H]3[C@H]2O)cc1	0.659

###

Documented composite z-score across a set of molecules
ASSAY_SYSTEM: Fibroblast growth factor 2 (Homo sapiens)
PROTOCOL_TEXT: FGF2 binders on small-molecule microarrays, primary screen, biochemical, small-molecule microarray, 635/667 nm fluorescence (AID 1133)
EXPERIMENTAL_CONTEXT: small-molecule microarray binding, FGF2, fluorescence 635/667; higher = more signal
ENDPOINT_NAME: composite z-score

> print(dat)
                                   molecule      endpoint.name  assay.value
1  CO[C@@H]1COC(=O)[C@@H]2CCCN2C(=O)[C@@H](C)COC(=O)CCC[C@H]1C  composite z-score        0.264
2            CON=C(C)CCN1CCCc2nc(C)c(C)cc21  composite z-score        0.653
3  O=C1[C@H]2[C@H]3[C@H](O)[C@H](O)CC(=NO[C@@H]4O[C@H](CO)[C@@H](O)[C@H](O)[C@H]4O)[C@@H]3CC[C@H]2C(=O)N1C[C@@H]1CCCO1  composite z-score          0.4
4  C#CCCCON=C1C[C@@H](O)[C@@H](O)[C@@H]2[C@@H]3C(=O)N(C4CCCCC4)C(=O)[C@@H]3CC[C@@H]12  composite z-score       0.0704
5   COC(=O)[C@H](CCSC)NC(=O)CC=C[C@@H](C)CO  composite z-score         1.73
6  O=C1CCCC=C1C(O)COCc1ccccc1 (centres undefined)  composite z-score        0.236
7  CO[C@@H](C1CCCCC1)[C@@H](C)[C@H](OCc1cccc(Br)c1)[C@@H](C)CO  composite z-score        0.286
8  COc1ccc(COC(=O)NN=C2C[C@@H](O)[C@@H](O)[C@@H]3[C@@H]4C(=O)N([C@@H](C)c5ccccc5)C(=O)[C@@H]4CC[C@@H]23)cc1  composite z-score        0.272
9  COc1ccc(O[C@H]2C=C[C@@H](C#Cc3ccccc3)O[C@@H]2CO)cc1  composite z-score       0.0738

###

Below, each entry is listed alongside its reported composite z-score.
ASSAY_SYSTEM: Focal adhesion kinase 1 (Homo sapiens)
PROTOCOL_TEXT: small-molecule microarray binders of FAK, primary screen, biochemical, 635/667 nm fluorescence, BSA, DTT (AID 1130);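 note: composite of spot emission at 667 nm and signal to noise over triplicate slides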
EXPERIMENTAL_CONTEXT: PTK2 binding, 635 nm fluorescence, higher = more signal
ENDPOINT_NAME: composite z-score

> print(dat)
                                   molecule  assay.value
1  COC(=O)[C@H](C)NC(=O)CCC1CC(OC(=O)NCc2cccc3ccccc23)CC2(CCCC(COC(=O)NCCc3ccccc3OC)O2)O1 (some centres undefined)        0.656
2  CO[C@@H]1C=CCC(=O)N[C@@H](C)C(=O)OC[C@@H](OC)[C@H](C)C=CCC(=O)OC[C@H]1C       -0.397
3  CO[C@H]1COC(=O)CCC[C@H](C)[C@@H](OC)COC(=O)CC=C[C@@H]1C       -0.246
4  O=C(NN=C1C[C@@H](O)[C@@H](O)[C@@H]2[C@@H]3C(=O)N(c4ccc(F)cc4F)C(=O)[C@@H]3CC[C@H]12)OCc1ccccc1       0.0097

###

PROTOCOL_TEXT: E. coli acrAB mutant growth effects, primary screen, E. coli filamentation inducers, strain DRC39, OD650, 48 h (AID 1179);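 note: screen aims at cell division blockers that make cells filament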
EXPERIMENTAL_CONTEXT: E. coli DRC39 delta-acrAB growth, higher = more signal, called active from +8 up or from −8 down
Active and inactive are the calls of the source.
ENDPOINT_NAME: z-score

> print(dat)
                                smiles.data  endpoint.name        assay.value
1  O=C(NN=C1C[C@@H](O)[C@@H](O)[C@@H]2[C@@H]3C(=O)N(Cc4ccccc4)C(=O)[C@@H]3CC[C@H]12)OCc1ccccc1        z-score  -0.783 (inactive)
2  COc1cccc([C@H]2Oc3ccc(OC)cc3C(=NO[C@@H](C)c3cc(-c4c(C)cc(C)cc4C)no3)[C@@H]2O)c1        z-score   -1.43 (inactive)
3  C#CCCCON=C1C[C@@H](O)[C@@H](O)[C@@H]2[C@@H]3C(=O)N(C4CCCCC4)C(=O)[C@@H]3CC[C@@H]12        z-score   0.311 (inactive)
4  CC(C)=CCCC(C)=CCON=C1C[C@@H](O)[C@@H](O)[C@@H]2[C@@H]3C(=O)N(Cc4ccc5c(c4)OCO5)C(=O)[C@@H]3CC[C@@H]12        z-score  -0.588 (inactive)
5    OC[C@H]1O[C@H](C#Cc2ccccc2)C=C[C@@H]1O        z-score   0.626 (inactive)
6  COc1ccc(COC(=O)NN=C2C[C@@H](O)[C@@H](O)[C@@H]3[C@@H]4C(=O)N(C5CCCCC5)C(=O)[C@@H]4CC[C@@H]23)cc1        z-score  -0.437 (inactive)
7  CCOC(=O)CCN1C(=O)[C@H]2[C@H]3[C@H](O)[C@H](O)CC(=NNC(=O)OCC)[C@H]3CC[C@H]2C1=O        z-score  -0.318 (inactive)

###

PROTOCOL_TEXT: E. coli acrAB mutant growth effects, primary screen, E. coli filamentation inducers, strain DRC39, OD650, 48 h (AID 1179);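 note: screen aims at cell division blockers that make cells filament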
EXPERIMENTAL_CONTEXT: E. coli DRC39 delta-acrAB growth, higher = more signal, called active from +8 up or from −8 down
The threshold is inclusive: z-score of exactly 0.1 counts as Criterion met; values below receive Criterion not met.

> print(dat)
                                smiles.data           category
1  O=C1C[C@@H](O)[C@@H](O)[C@@H]2[C@@H]3C(=O)N(Cc4ccccc4)C(=O)[C@@H]3CC[C@H]12  Criterion not met
2  CO[C@@H]1COC(=O)[C@H](COCc2ccccc2)NC(=O)CC=C[C@@H](C)[C@H](OC)COC(=O)[C@@H](C)NC(=O)CC=C[C@H]1C      Criterion met
3  COC(=O)CC=C[C@@H](C)[C@@H](C=NOC[C@@H](O)[C@H]1O[C@@H]2OC(C)(C)O[C@@H]2[C@H]1O)OC      Criterion met
4  O=C1C2=CC[C@H]3C(=O)N(C4CCCCC4)C(=O)[C@H]3[C@H]2[C@H](O)[C@@H]2O[C@H]12  Criterion not met
5  CON=C(C)CCN1CCc2nc(-c3ccccc3)c(-c3ccccc3)cc2C1  Criterion not met
6  C=CC[C@@H]1C=C[C@H](ON=C[C@@H](NS(=O)(=O)c2ccc(C)cc2)[C@H](C)C=CCC(=O)OC)[C@@H](CO)O1      Criterion met
7  COC(OC)[C@@H](C)[C@H](OC)[C@@H](C)[C@H](OC)c1ccccc1  Criterion not met
8  O=C1C2=CC[C@H]3C(=O)N(C[C@@H]4CCCO4)C(=O)[C@H]3[C@H]2[C@H](O)[C@@H]2O[C@H]12      Criterion met
